assay_system: UniProt Q86SK9
assay_overview: Yeast growth assay, strain expressing human SCD5 as the sole desaturase (reduced growth as surrogate for SCD inhibition)
assay_setup: yeast with OLE1 deleted expressing human SCD5 from a plasmid; growth read as OD600 after 40 h at 30° C.; top drug concentration 33.3 μM
reported_property: IC50 (µM)

>>> print(df.to_string())
                                  structure  reported_property  data_value
0  N#Cc1ccc(-c2cc(C(=O)N3CCC(c4ccccc4)CC3)no2)cc1               IC50         0.7

a = C=Cc1cc(C(=O)Nc2cnn(Cc3cccc(F)c3)c2)no1
b = O=C(Nc1cnn(Cc2ccccc2)c1)c1cc(-c2ccncc2Cl)on1
c = Cc1nn(Cc2ccccc2)c(C)c1NC(=O)c1cc(-c2ccco2)on1
IN: Arrange the 3 molecules by rising IC50, starting with the smallest. Use the labels to give the ranking in the order requested.
OUT: a, b, c

---

Listed compounds paired with reported IC50
assay_system: human SCD1 (Homo sapiens (Human))
assay_overview: Yeast growth assay, strain expressing human SCD1 as the sole desaturase (reduced growth as surrogate for SCD inhibition)
assay_setup: yeast with OLE1 deleted expressing human SCD1 from a plasmid; growth read as OD600 after 40 h at 30° C.; top drug concentration 33.3 μM
Procedure: Strains expressing SCD1 or SCD5 as the sole desaturase, the human SCD1 and SCD5 genes were used to evaluate inhibition of SCD1/SCD5 using reduced growth as a surrogate for SCD inhibition. […] After yeast delivery, assay plates were incubated under humidified conditions at 30° C. for 40 h. Yeast growth was monitored by reading the OD600 of each well using a microplate reader (Perkin Elmer EnVision™).

Here is how some compounds turned out for IC50.
>>> df
                                   compound  reported_property  data_value
0  O=C(c1cc(-c2ccccc2)on1)N1CCC(c2cccc(F)c2)CC1 [Compound 307]               IC50     > 45 µM
1  COc1ccc([C@H]2CCCN2C(=O)c2cc(-c3ccc4c(c3)OCO4)on2)cc1 [Compound 360]               IC50     > 45 µM

Lab note: next compound to report on.
IN: For the compound shown here, N#Cc1cc(F)cc(Cn2cc(NC(=O)c3cc(-c4ccccc4)on3)cn2)c1 [Compound 98] , give the reported IC50.
OUT: > 45 µM

---

assay_system: UniProtKB Q86SK9
assay_overview: Yeast growth assay, strain expressing human SCD5 as the sole desaturase (reduced growth as surrogate for SCD inhibition)
assay_setup: yeast with OLE1 deleted expressing human SCD5 from a plasmid; growth read as OD600 after 40 h at 30° C.; top drug concentration 33.3 μM
reported_property: IC50

>>> print(df.to_string())
                                   molecule  data_value
0  O=C(Nc1cnn(Cc2ccc(F)cc2)c1)c1cc(-c2ccccc2)on1     > 45 µM
1  CS(=O)(=O)CC(c1ccccc1)n1cc(NC(=O)c2cc(-c3ccccc3)on2)cn1 (centres unmarked)     > 45 µM
2   N#Cc1cc(C(=O)Nc2cnn(Cc3cccc(F)c3)c2)no1     > 45 µM
3  O=C(c1cc(-c2ccccn2)on1)N(Cc1ccc(F)c(F)c1)c1cnn(Cc2ccc(F)c(F)c2)c1     33.1 µM
4  Cc1nn(C)c2cc(-c3cc(C(=O)N4CCCC4c4cccnn4)no3)ccc12 (centres unmarked)     > 45 µM

IN: So what's the measured IC50 for this one? O=C(Nc1cnn(Cc2ccccc2)c1)c1cc(-c2ccns2)on1
OUT: > 45 µM

IN: Tell me the measured IC50 of O=C(c1cc(-c2ccccc2)on1)N1CCN(c2ccccc2F)CC1 , please.
OUT: > 45 µM

---

assay_system: human SCD1 (Homo sapiens (Human), UniProt O00767)
Sequence (O00767 whole entry): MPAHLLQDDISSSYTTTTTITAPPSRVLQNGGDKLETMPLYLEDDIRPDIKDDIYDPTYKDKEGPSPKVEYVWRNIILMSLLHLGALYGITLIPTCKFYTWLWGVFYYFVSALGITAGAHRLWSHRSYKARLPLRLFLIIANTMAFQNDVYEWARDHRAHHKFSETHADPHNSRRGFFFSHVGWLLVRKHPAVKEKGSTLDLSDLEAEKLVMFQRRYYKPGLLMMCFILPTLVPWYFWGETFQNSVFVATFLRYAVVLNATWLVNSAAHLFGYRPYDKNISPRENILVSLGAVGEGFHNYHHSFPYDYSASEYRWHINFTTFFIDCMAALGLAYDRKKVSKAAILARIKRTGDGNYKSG
assay_overview: Yeast growth assay, strain expressing human SCD1 as the sole desaturase (reduced growth as surrogate for SCD inhibition)
assay_setup: yeast with OLE1 deleted expressing human SCD1 from a plasmid; growth read as OD600 after 40 h at 30° C.; top drug concentration 33.3 μM
pIC50: −log10 of the molar value.
Reported values of pIC50 for individual entries

In [3]: df
Out[3]:
                                   compound  reported_property  data_value
0  N#Cc1ccc(-c2cc(C(=O)N3CCC[C@H]3c3ccccc3)no2)cc1 [Compound 404]              pIC50      < 4.35
1  O=C(c1cc(-c2ccc3c(c2)OCO3)on1)N1CCC[C@@H]1C(F)(F)F [Compound 372]              pIC50      < 4.35
2  O=C(c1cc(-c2ccc3c(c2)OCO3)on1)N1CCCC1c1cccnn1 (centres unmarked) [Compound 391]              pIC50      < 4.35
3  O=C(c1noc2cc(Br)ccc12)N1CCC[C@H]1c1ccccc1 [Compound 449]              pIC50      < 4.35
4  COc1ccc(-c2cc(NC(=O)[C@@H]3CCCN3c3ccccc3)on2)cc1 [Compound 445]              pIC50      < 4.35

IN: I have this compound here, N#Cc1cccc(C2CCCN2C(=O)c2cc(-c3ccc4c(c3)OCO4)on2)c1 (centres unmarked) [Compound 396] , and I need its recorded pIC50.
OUT: 4.41

IN: Entry O=C(c1cc(-c2ccccn2)on1)N1CCC(c2ccccc2)C1 (centres unmarked) [Compound 351] has what pIC50?
OUT: < 4.35

IN: Entry O=C(Nc1cnn(Cc2ccccc2)c1)c1cc(-c2ccco2)no1 [Compound 11] : reported pIC50 = ?
OUT: 7.30

IN: # get_value(readout='pIC50', item= CN(Cc1cccc(F)c1)C(=O)c1cc(-c2ccccc2)on1 [Compound 9] )
OUT: < 4.35

IN: pIC50 for Cc1nnc(-c2cc(C(=O)Nc3cnn(Cc4cccc(F)c4)c3)no2)o1 [Compound 179] ?
OUT: < 4.35

IN: Form field: reported pIC50 of C[C@H]1CCCN1C(=O)c1cc(-c2ccc3c(c2)OCO3)on1 [Compound 369]
OUT: < 4.35

---

assay_system: human SCD5 (Homo sapiens (Human), UniProt Q86SK9)
Sequence (Q86SK9 whole entry): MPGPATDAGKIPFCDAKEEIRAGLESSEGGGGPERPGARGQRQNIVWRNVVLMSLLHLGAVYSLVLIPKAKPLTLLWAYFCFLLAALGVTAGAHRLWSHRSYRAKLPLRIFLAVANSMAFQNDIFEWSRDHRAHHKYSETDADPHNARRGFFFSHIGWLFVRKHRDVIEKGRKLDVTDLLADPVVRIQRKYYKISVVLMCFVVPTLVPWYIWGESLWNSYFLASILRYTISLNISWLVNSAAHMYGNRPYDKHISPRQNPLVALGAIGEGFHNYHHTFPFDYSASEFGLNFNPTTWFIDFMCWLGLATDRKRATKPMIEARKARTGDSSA
assay_overview: Yeast growth assay, strain expressing human SCD5 as the sole desaturase (reduced growth as surrogate for SCD inhibition)
assay_setup: yeast with OLE1 deleted expressing human SCD5 from a plasmid; growth read as OD600 after 40 h at 30° C.; top drug concentration 33.3 μM
Procedure: Strains expressing SCD1 or SCD5 as the sole desaturase, the human SCD1 and SCD5 genes were used to evaluate inhibition of SCD1/SCD5 using reduced growth as a surrogate for SCD inhibition. […] After yeast delivery, assay plates were incubated under humidified conditions at 30° C. for 40 h. Yeast growth was monitored by reading the OD600 of each well using a microplate reader (Perkin Elmer EnVision™).
pIC50: −log10 of the molar value.
reported_property: pIC50

Before answering, review these 8 worked examples.
In [3]: df
Out[3]:
                                   compound  reported_property  data_value
0   O=C(Nc1cnn(CC2CC2)c1)c1cc(-c2ccccc2)on1              pIC50      < 4.35
1  O=C(c1cc(-c2ccccc2)on1)N1CCN(c2cc(F)ccc2Cl)CC1              pIC50        5.25
2  Cc1nn(Cc2ccc(Cl)c(Cl)c2)c(C)c1NC(=O)c1cc(-c2ccco2)on1              pIC50        5.15
3  COc1ccncc1Cn1cc(NC(=O)c2cc(-c3ccccc3F)on2)cn1              pIC50      < 4.35
4  CSCCC(c1ccccc1)n1cc(NC(=O)c2cc(-c3ccccc3)on2)cn1 (centres unmarked)              pIC50      < 4.35
5  O=C(c1cc(-c2ccc3c(c2)OCO3)on1)N1CCC(Oc2ccccc2)CC1              pIC50        5.53
6  O=C(Nc1cnn(Cc2ccc(C(F)(F)F)cc2)c1)c1cc(-c2ccco2)on1              pIC50      < 4.35
7  O=C(c1cc(-c2ccccc2)on1)N1CCN(c2cccc(F)c2)CC1              pIC50      < 4.35

Let's switch to this compound now.
IN: Look up pIC50 for this compound: C#Cc1cc(C(=O)Nc2cnn(Cc3cccc(F)c3)c2)no1
OUT: 5.28

---

assay_system: human SCD5 (Homo sapiens (Human), UniProt Q86SK9)
assay_overview: Yeast growth assay, strain expressing human SCD5 as the sole desaturase (reduced growth as surrogate for SCD inhibition)
assay_setup: yeast with OLE1 deleted expressing human SCD5 from a plasmid; growth read as OD600 after 40 h at 30° C.; top drug concentration 33.3 μM
reported_property: IC50

# count of solved cases: 2
In [3]: df
Out[3]:
                                   compound                              assay_system  data_value
0  O=C(c1cc(-c2ccc3c(c2)OCO3)on1)N1CCCC1c1ccncc1 (stereo not shown)  human SCD5 (Homo sapiens (Human), UniProt Q86SK9)     > 45 µM
1  COc1ccc(C2CCCN2C(=O)c2cc(-c3ccc(OC)c(F)c3)on2)cc1 (stereo not shown)  human SCD5 (Homo sapiens (Human), UniProt Q86SK9)     > 45 µM

IN: Would you mind telling me what IC50 value was observed for O=C(c1cc(-c2ccccn2)on1)N1CCC(c2ccccc2)CC1 ?
OUT: 14.1 µM

IN: Reported IC50, compound O=C(c1cc(-c2ccc3c(c2)OCO3)on1)N1COCC1c1ccccc1 (stereo not shown) : ____
OUT: > 45 µM

IN: Using the record for O=C(Nc1cnnc(Oc2ccccc2)c1)c1cc(-c2ccccc2)on1 , report its IC50.
OUT: > 45 µM

IN: Look at this compound and give its reported IC50. C[S+]([O-])CC(c1ccccc1)n1cc(NC(=O)c2cc(-c3ccccc3)on2)cn1 (stereo not shown)
OUT: > 45 µM

IN: Which IC50 value belongs to O=C(c1cc(-c2ccc3c(c2)OCO3)on1)N1CCCC1c1ccccc1C(F)F (stereo not shown) ?
OUT: 6.18 µM
